conditions: human gut metagenome, 24 h, 2 µM; note: call rule not given here

# Compound, Bacterial Biotransformation
records = [
    ("CC(C)N(CCC(C(N)=O)(c1ccccc1)c1ccccn1)C(C)C.O=P(O)(O)O (stereo not given) [DISOPYRAMIDE PHOSPHATE]", "Compound metabolized"),
    ("COc1ccccc1OCC(O)CN1CCN(CC(=O)Nc2c(C)cccc2C)CC1 (stereo not given) [RANOLAZINE]", "Compound NOT metabolized"),
    ("CC(C)(C)NC[C@H](O)COc1ccccc1C1CCCC1.CC(C)(C)NC[C@H](O)COc1ccccc1C1CCCC1.O=S(=O)(O)O [PENBUTOLOL SULFATE]", "Compound metabolized"),
    ("CCN(CC)CCNC(C(=O)OCCC(C)C)c1ccccc1.Cl.Cl (stereo not given)", "Compound metabolized"),
    ("CC(C)(C(=O)O)c1ccc(C(O)CCCN2CCC(C(O)(c3ccccc3)c3ccccc3)CC2)cc1 (stereo not given) [FEXOFENADINE]", "Compound NOT metabolized"),
    ("CN1CCN(C(=O)O[C@H]2c3nccnc3C(=O)N2c2ccc(Cl)cn2)CC1 [ESZOPICLONE]", "Compound NOT metabolized"),
    ("N#Cc1ccc(C(c2ccc(C#N)cc2)n2cncn2)cc1 [LETROZOLE]", "Compound NOT metabolized"),
    ("CN1C(=O)CCS(=O)(=O)C1c1ccc(Cl)cc1 (stereo not given) [CHLORMEZANONE]", "Compound NOT metabolized"),
    ("CC(C)(C#N)c1cc(Cn2cncn2)cc(C(C)(C)C#N)c1 [ANASTROZOLE]", "Compound metabolized"),
    ("Cc1nc2n(c(=O)c1CCN1CCC(c3noc4cc(F)ccc34)CC1)CCCC2O (stereo not given) [PALIPERIDONE]", "Compound metabolized"),
    ("CNCCC(Oc1ccc(C(F)(F)F)cc1)c1ccccc1 (stereo not given) [FLUOXETINE]", "Compound NOT metabolized"),
    ("C=CCN1CC[C@]23c4c5ccc(O)c4O[C@H]2C(=O)CC[C@@]3(O)[C@H]1C5 [NALOXONE]", "Compound NOT metabolized"),
    ("Nc1c2c(nc3ccccc13)CCCC2 [TACRINE]", "Compound metabolized"),
    ("CC[C@H](C)C(=O)O[C@H]1C[C@@H](C)C=C2C=C[C@H](C)[C@H](CC[C@@H]3C[C@@H](O)CC(=O)O3)[C@H]21 [LOVASTATIN]", "Compound NOT metabolized"),
    ("CN1CCc2cccc3c2[C@H]1Cc1ccc(O)c(O)c1-3 [APOMORPHINE]", "Compound NOT metabolized"),
    ("CN(C)CCc1c[nH]c2ccc(Cn3cncn3)cc12.O=C(O)c1ccccc1 [RIZATRIPTAN BENZOATE]", "Compound NOT metabolized"),
    ("CO[C@]12C[C@@H](COC(=O)c3cncc(Br)c3)CN(C)[C@@H]1Cc1cn(C)c3cccc2c13 [NICERGOLINE]", "Compound NOT metabolized"),
    ("CCN1CCCC1CNC(=O)c1cc(S(N)(=O)=O)ccc1OC (stereo not given) [SULPIRIDE]", "Compound metabolized"),
    ("COCCc1ccc(OCC(O)CNC(C)C)cc1.COCCc1ccc(OCC(O)CNC(C)C)cc1.O=C(O)C(O)C(O)C(=O)O (stereo not given) [METOPROLOL TARTRATE]", "Compound metabolized"),
    ("CC(CN1c2ccccc2Sc2ccccc21)N(C)C (stereo not given) [PROMETHAZINE]", "Compound metabolized"),
    ("CN1CCc2c(c3ccccc3n2Cc2ccccc2)C1.CN1CCc2c(c3ccccc3n2Cc2ccccc2)C1.O=S(=O)(O)c1cccc2c(S(=O)(=O)O)cccc12", "Compound NOT metabolized"),
    ("COc1cc2nc(N(C)CCCNC(=O)C3CCCO3)nc(N)c2cc1OC (stereo not given) [ALFUZOSIN]", "Compound metabolized"),
    ("CNS(=O)(=O)Cc1ccc2[nH]cc(CCN(C)C)c2c1.O=C(O)CCC(=O)O [SUMATRIPTAN SUCCINATE]", "Compound metabolized"),
    ("Cc1cc2c(cc1S(N)(=O)=O)S(=O)(=O)CCC2", "Compound NOT metabolized"),
    ("COc1cc2nc(N3CCN(C(=O)c4ccco4)CC3)nc(N)c2cc1OC [PRAZOSIN]", "Compound metabolized"),
    ("NC(CO)(CO)CO.O=C(c1ccccc1)c1ccc2n1CCC2C(=O)O (stereo not given) [KETOROLAC TROMETHAMINE]", "Compound metabolized"),
    ("OCCN1CCN(CCCN2c3ccccc3Sc3ccc(C(F)(F)F)cc32)CC1 [FLUPHENAZINE]", "Compound metabolized"),
    ("CCOC(=O)[C@H](CCc1ccccc1)N[C@@H](C)C(=O)N1[C@H](C(=O)O)C[C@H]2CCCC[C@@H]21 [TRANDOLAPRIL]", "Compound metabolized"),
    ("O=C(O)CCc1nc(-c2ccccc2)c(-c2ccccc2)o1 [OXAPROZIN]", "Compound metabolized"),
    ("CC(C)NCC(O)c1ccc(NS(C)(=O)=O)cc1 (stereo not given) [SOTALOL]", "Compound NOT metabolized"),
    ("CCCCC1=NC2(CCCC2)C(=O)N1Cc1ccc(-c2ccccc2-c2nnn[nH]2)cc1 [IRBESARTAN]", "Compound metabolized"),
    ("CC(=O)OCC(=O)[C@@]1(O)[C@@H](C)C[C@H]2[C@@H]3CCC4=CC(=O)C=C[C@]4(C)[C@@]3(F)[C@@H](O)C[C@@]21C [BETAMETHASONE ACETATE]", "Compound metabolized"),
    ("CN1CCOC(c2ccccc2)c2ccccc2C1 (stereo not given) [NEFOPAM]", "Compound metabolized"),
    ("c1ccc([C@H]2CN3CCSC3=N2)cc1 [LEVAMISOLE]", "Compound metabolized"),
    ("Cc1ccc(S(=O)(=O)NC(=O)NN2CC3CCCC3C2)cc1 (stereo not given) [GLICLAZIDE]", "Compound metabolized"),
]
